Data provenance is paper PMC7906539.

molecular target: His-mHtt and GST-CaM (CaM–mHtt interaction) (Homo sapiens, UniProt P0DP23+P42858); assay: CaM/mHtt AlphaScreen binding assay; conditions: read-out: AlphaScreen CaM–mHtt, IC50; triplicate
Sequence (P42858 whole entry, one chain of several): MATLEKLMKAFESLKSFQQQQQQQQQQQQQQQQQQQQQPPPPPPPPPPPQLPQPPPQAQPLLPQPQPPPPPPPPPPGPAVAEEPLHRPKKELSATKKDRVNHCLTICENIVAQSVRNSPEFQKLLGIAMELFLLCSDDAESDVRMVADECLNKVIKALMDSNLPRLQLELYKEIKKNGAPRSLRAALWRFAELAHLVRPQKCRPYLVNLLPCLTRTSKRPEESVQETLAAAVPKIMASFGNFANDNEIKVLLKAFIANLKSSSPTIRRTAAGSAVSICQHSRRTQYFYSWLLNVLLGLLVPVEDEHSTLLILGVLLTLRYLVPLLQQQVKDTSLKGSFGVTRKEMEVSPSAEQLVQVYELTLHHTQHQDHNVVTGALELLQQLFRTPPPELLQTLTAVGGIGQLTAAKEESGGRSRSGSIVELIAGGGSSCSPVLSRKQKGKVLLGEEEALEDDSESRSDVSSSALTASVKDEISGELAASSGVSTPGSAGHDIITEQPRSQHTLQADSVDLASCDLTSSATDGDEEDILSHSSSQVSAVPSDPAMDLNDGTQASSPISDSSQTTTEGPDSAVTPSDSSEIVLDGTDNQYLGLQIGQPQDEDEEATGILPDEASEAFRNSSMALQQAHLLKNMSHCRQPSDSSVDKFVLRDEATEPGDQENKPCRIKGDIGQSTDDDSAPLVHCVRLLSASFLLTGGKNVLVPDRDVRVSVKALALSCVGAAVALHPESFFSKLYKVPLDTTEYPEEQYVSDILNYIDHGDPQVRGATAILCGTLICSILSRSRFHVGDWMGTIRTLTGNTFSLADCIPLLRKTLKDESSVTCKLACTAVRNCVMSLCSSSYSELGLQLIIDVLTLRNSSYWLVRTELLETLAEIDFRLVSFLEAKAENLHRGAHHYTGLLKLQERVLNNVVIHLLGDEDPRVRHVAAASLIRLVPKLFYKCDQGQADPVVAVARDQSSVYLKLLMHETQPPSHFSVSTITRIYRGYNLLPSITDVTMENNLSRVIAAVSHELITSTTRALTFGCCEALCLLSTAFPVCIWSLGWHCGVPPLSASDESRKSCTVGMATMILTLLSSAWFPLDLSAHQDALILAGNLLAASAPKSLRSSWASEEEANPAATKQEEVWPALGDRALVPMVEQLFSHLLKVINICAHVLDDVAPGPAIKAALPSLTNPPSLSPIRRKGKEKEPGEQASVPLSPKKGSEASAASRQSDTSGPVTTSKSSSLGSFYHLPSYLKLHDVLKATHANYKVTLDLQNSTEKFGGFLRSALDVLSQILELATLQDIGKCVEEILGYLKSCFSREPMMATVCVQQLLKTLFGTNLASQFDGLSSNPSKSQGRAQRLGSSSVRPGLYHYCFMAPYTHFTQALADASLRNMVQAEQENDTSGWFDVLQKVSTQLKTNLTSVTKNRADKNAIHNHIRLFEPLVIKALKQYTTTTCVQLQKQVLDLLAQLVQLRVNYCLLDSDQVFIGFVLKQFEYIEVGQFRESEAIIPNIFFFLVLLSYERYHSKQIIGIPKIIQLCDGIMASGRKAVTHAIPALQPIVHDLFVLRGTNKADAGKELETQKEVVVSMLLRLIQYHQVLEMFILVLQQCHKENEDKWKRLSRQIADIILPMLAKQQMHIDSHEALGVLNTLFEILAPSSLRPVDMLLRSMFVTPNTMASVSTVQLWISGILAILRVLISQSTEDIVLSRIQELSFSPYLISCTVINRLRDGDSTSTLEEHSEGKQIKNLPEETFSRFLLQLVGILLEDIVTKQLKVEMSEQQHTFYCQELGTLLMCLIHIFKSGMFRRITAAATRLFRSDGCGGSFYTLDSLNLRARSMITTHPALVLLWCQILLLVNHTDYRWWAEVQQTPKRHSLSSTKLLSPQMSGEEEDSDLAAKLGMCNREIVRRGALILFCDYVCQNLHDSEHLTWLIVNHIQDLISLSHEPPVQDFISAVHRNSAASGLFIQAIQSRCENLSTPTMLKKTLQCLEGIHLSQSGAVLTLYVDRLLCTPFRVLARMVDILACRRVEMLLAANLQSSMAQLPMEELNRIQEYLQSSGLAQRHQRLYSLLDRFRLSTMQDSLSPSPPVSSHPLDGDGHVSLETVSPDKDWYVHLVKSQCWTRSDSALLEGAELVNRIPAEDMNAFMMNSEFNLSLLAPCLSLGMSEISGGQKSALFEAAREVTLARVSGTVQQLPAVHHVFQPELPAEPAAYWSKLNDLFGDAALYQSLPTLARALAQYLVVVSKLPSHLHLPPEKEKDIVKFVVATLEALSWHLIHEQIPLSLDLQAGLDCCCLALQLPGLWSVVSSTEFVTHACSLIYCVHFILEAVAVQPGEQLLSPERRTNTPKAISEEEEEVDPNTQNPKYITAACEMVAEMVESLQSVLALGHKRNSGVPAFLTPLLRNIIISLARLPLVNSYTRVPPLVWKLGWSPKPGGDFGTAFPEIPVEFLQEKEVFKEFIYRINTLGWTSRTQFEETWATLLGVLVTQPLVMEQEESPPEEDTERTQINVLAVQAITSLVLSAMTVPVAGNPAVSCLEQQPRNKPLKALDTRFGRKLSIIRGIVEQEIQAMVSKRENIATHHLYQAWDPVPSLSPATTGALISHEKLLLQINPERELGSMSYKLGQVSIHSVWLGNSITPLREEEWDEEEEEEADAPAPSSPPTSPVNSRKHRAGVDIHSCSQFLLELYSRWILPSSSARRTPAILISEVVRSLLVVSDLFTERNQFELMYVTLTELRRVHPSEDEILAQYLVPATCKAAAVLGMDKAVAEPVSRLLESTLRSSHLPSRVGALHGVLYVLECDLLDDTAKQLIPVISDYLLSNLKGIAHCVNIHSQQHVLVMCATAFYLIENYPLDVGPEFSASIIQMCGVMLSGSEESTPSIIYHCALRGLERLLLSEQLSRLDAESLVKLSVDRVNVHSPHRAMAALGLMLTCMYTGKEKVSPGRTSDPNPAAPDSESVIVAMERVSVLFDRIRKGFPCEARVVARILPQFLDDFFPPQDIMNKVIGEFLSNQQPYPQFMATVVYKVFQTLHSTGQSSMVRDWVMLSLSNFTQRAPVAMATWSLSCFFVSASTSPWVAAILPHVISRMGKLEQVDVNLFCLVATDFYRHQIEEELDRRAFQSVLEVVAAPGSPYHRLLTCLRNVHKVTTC
MEASUREMENT_NAME: pIC50
Scale: negative log10 of molar concentration, which is what pIC50 denotes.

Exercise: Need pIC50 of C=C1CCN([C@@H](CC(C)C)C(=O)NCc2ccc(Cl)cc2)S(=O)(=O)c2ccccc21 [Compound 9c] , thanks.
Key: 5.55

Exercise: Need pIC50 of C=C1CCN([C@H](CC(C)C)C(=O)NCc2ccccc2)S(=O)(=O)c2ccccc21 [Compound 10b] , thanks.
Key: 4.90

Exercise: Need pIC50 of C=C1CCN([C@@H](CC(C)C)C(=O)NCCc2ccc(Cl)c(Cl)c2)S(=O)(=O)c2ccccc21 [Compound 9h] , thanks.
Key: 6.26

Exercise: Need pIC50 of C=C1CCN([C@@H](CC(C)C)C(=O)NCc2ccccc2)S(=O)(=O)c2ccccc21 [Compound 9b] , thanks.
Key: 4.91
